We begin with a simple list: items and their reported apparent KD of MS2 coat protein.
# System: MS2 coat protein
# experiment_summary: apparent KD of MS2 coat protein; designed switch direction (-1 OFF switch, 1 ON switch): 1; higher = weaker reporter binding
# measurement_conditions: input ligand: FMN 200 uM
Give the number; nM is assumed, so skip it.

| sequence_string | endpoint | measured |
| --- | --- | --- |
| UCAGUCAUGUAAGGAUAUGCAGCCGAAACGGCUGCAGAAGGUACUAUAAUUACAUGAGGAUCACCCAUGUUAUAAAAUAAAUAU [Mat - Same State NG 1 - JL mod - D65] (Eterna round: R96, puzzle: Same State NG 1) | apparent KD of MS2 coat protein | 18.4 |

Now for another entry.
Bench note: what apparent KD of MS2 coat protein did GUUACAUGAGGAUCACCCAUGUAUGUGUGGGAGUAAGUGUCUUAGGAUAUCUGUUAUUUAAGUUAAGAGAAGGAAGAUUGUUGU [JMF's solution 42] (Eterna round: R96, puzzle: Same State NG 3) show? 92.8

---

# System: K4 kissing-loop RNA reporter;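 further: bound reporter read as fluorescence of individual clusters on recovered sequencing chips by microscopy, with normalized cluster intensities fitted with a binding model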
# experiment_summary: apparent KD of K4 kissing-loop reporter; higher = weaker reporter binding
# measurement_conditions: Eterna round: R107; input ligand: none
endpoint: apparent KD of K4 kissing-loop reporter (µM)
All answers are understood in µM, so give the number only.

Fill in the recorded apparent KD of K4 kissing-loop reporter for this sequence, with K4 kissing-loop RNA reporter as test system: GAUGAUCGCGCGGCCGCCACUGGUCAGUGAUGUUGACAUUAAUGCGCCGAGUAGUAACGGCGCAACAGGACCGGGCGCGAUGUAG [#11 K4 Tryptophan B Same State] 0.143

I'm curious: which apparent KD of K4 kissing-loop reporter was measured for AAGAGAGCGAGAAGGAGCGAGAAAGCUAGUGCAUAUGCACUAGCAAAGCAGUGAUGUUGCACUCAGGUAGGUCGCUCGCUCUCAA [AK1.2 SS Arginine B] tested on K4 kissing-loop RNA reporter? 0.35

Enter reported apparent KD of K4 kissing-loop reporter observed with K4 kissing-loop RNA reporter for UUCAGACUACUACUAUUUAGUAGUAUAUACUAGGAUAUCCAGAUAUGGAGAAGGAGUGAUGUUCCUUAGUAGUAGUGAAUUAAAU [KL-XFMN-A6] 0.128

// fetch K4 kissing-loop RNA reporter apparent KD of K4 kissing-loop reporter for GGAAAUCUUGCCGAUACCAGAUCGCGCGGCCAUUGCUAGUGAUGUUGGCAAUAAGUACUCAUCCCUUGGCAGCGGUAAGGCAGUG [theeternabot_sameState_KL_Theo_B_23] 0.359

Form field: apparent KD of K4 kissing-loop reporter recorded for CCUCACGUAGGACUAGUGAUGUUAGACUACCGAGGACCGGUACGGCCGCCACUCGUCGUACAAGAUAACCAUCUGCCAGUAUACA with K4 kissing-loop RNA reporter (enter value) 0.117

Could you share what apparent KD of K4 kissing-loop reporter was measured for UACUAUAGUGAUGUUAUAGAUAAACCAGAUACCAGUGUAACAUAACACCCUUGGCAGCUGAUGAGGGAACUAUUGAAAACAAUAG [AstroSTH-A#7newdesignED4.86] , tested on K4 kissing-loop RNA reporter? 0.267

Tell me reported apparent KD of K4 kissing-loop reporter for AGCGCUGCCUGAGGAUAUAGAAACGAGUGAUGUUCGUGGAUUGAUACCAGUGAUGUUGGCCUAUUUCUAGAAGGCAGGCGAUCGU [Exclusion FMN B GF2] , tested with K4 kissing-loop RNA reporter. 0.136

Fill in the recorded apparent KD of K4 kissing-loop reporter for this sequence, with K4 kissing-loop RNA reporter as test system: GCAGUGAUGUUGCUGAUGUACAGUGGGAUACGAGGACCGGUACGGCCGCCACUCGUACAGAACUUGUUAAUACAUCGAUAGGUGA [XIII] 0.88

Form entry - test system: K4 kissing-loop RNA reporter; read-out: apparent KD of K4 kissing-loop reporter; sequence: GUUAUUCUAAACGCAGUAGUGAUGUUGAUGCGAGGACCGGUACGGCCGCCACUCGACUGCCGUCACGCCCGUCCAACAGCCGGAG [theeternabot_exclusion_KL_Trp_A_20] 0.478

Identify the measured apparent KD of K4 kissing-loop reporter of UCGCCGCUCACGGCCGCCACUAAGCCCAAGACCAGAGAGUGAUGUUCUAUCCACGUUUCAAUUUUUAGGACCGGGUGAAAGGCGA [theeternabot_sameState_KL_Trp_B_14] for K4 kissing-loop RNA reporter. 0.729

# get_value(readout= apparent KD of K4 kissing-loop reporter, system= K4 kissing-loop RNA reporter) for CAGCGGAGUGAUGUUCUGCUUACUGCGGAUACCAGCUUCGCCAGAGGCCCUUGGCAGCCGGGCGGCUCAGUGAUGUUGGGUUGCU [Same State Theophylline A GF 15] 0.876

Notebook: pull reported apparent KD of K4 kissing-loop reporter for K4 kissing-loop RNA reporter, entry UUUAACGAGUGAUGUUCGAAAAGUAAUGGUGAGGAUAUCGUUUUUUCGAGAAGGCACCUCGAAGUGAUACGAAAGUAUCGCUUCG [FMN A 3] 0.315

---

# Test system: MS2 coat protein
# experiment_summary: apparent KD of MS2 coat protein; designed switch direction (-1 OFF switch, 1 ON switch): 1; higher = weaker reporter binding
# measurement_conditions: Eterna round: R95; input ligand: FMN 200 uM
Binary call on apparent KD of MS2 coat protein: rule met from 60 nM upward, rule not met beneath that.

Some solved cases for reference:
| sequence_string | category_label |
| --- | --- |
| UGUCCAGCCUGAGCUGGACAAAAGCAUGUACAUGAGGAUCACCCAUGUUCAUGUACAAGCUUUUUGCUCGUCUUAAC [salish99_208a_r3_033] (puzzle: Sensor for hsa-mir-208a) | rule met |
| AUCAAAACAAGUUGCAGUGUUCGUCUUUCACAUGAGGAUCACCCAUGUAAUAGCCCAGUGGAAGCGCUCAGGCCACC [Usbi] (puzzle: Sensor for hsa-mir-208a) | rule met |
| UACAAUCUAUCUGAGGAUAUCAUGAAGAAAACAUGAGGAUCACCCAUGUGCAGGAGAACUGCAAAUGAGAAGGCAGAUAGAUUGU [Mat - Same State 2 - Mod - D1] (puzzle: Same State 2) | rule not met |
| GGAGCCGGUACUGAGGAUAUUUAUAUUAAAACAUGAGGAUCACCCAUGUAGGCCAGAAGGCCUUGGGAGAAGGCAGAUCGGCUCC [Biseusra - 5] (puzzle: Same State 2) | rule not met |
| GGUCCAGCCUGAGCUGGACUACAGCAUGUACAUGAGGAUCACCCAUGUCAUGUACAAGAAUGUUGUUUGUCUUAAAA [Sensorship 8 - Jieux - Sensor for hsa-mir-208a] (puzzle: Sensor for hsa-mir-208a) | rule met |

Assess whether reported apparent KD of MS2 coat protein for AGUCCAGCAAGAGCUGGACAAAAGCAUGUACAUGAGGAUCACCCAUGUUCAUGUACAAGCUUUUUGCUCGUCUUAAA [Mat - hsa-mir-208a - Mod of JL - 57] (puzzle: Sensor for hsa-mir-208a) sits at 60 nM or higher. rule met

Reported apparent KD of MS2 coat protein reaches at least 60 nM for CAAGCUUGGGUCGUCCCGCUCGUCUUCAAACAUGAGGAUCACCCAUGUAUACUCUUCACAUCAAUUCUAUCUCUUAA [Ralasoerin] (puzzle: Sensor for hsa-mir-208a) ? rule met

Is apparent KD of MS2 coat protein at least 60 nM? Consider AGUCCAGCCUGAGCUGGACAAAAGCAUGUACAUGAGGAUCACCCAUGUUCGUGUACAAGCUUUUUGCUCGUCUUAAA [Zipper 52 - 5] (puzzle: Sensor for hsa-mir-208a) rule met

In plain terms: is recorded apparent KD of MS2 coat protein at least 60 nM for GUAAAACAUGAGGAUCACCCAUGUAAUAUAAUGGGAGGAUAUCUGAUUUAAUUUAAUUUAAGAGAAGGCCUAAAUG [Mat - Same State 1 - Mod of Eli - D57] (puzzle: Same State 1) ? rule not met

---

# System: MS2 coat protein
# experiment_summary: apparent KD of MS2 coat protein; designed switch direction (-1 OFF switch, 1 ON switch): -1; higher = weaker reporter binding
# measurement_conditions: input ligand: FMN 200 uM
endpoint: apparent KD of MS2 coat protein (nM)
Expressed in nM, but write only the number.

| sequence_string | tgt | endpoint | measured |
| --- | --- | --- | --- |
| GCCGAAAGUGUGAGGAUAUACCUAUGGAUACAUAGGUAGAAGGCACAUGAGGAUCACCCAUGUGGGAAAACGGC [Eli bmx4 4.30] (Eterna round: R97, puzzle: Brourd's mod of Exclusion 4) | MS2 coat protein | apparent KD of MS2 coat protein | 1140 |
| ACAUGAGGAUCACCCAUGUCGAGUACAUGAGGAUCACCCAUGUAGGAUAUGGUUCGCUUUGCGUGCUAGAAGGAUAUGUGAUGA [salish99_ExNG3_r04_512] (Eterna round: R96, puzzle: Exclusion NG 3) | MS2 coat protein | apparent KD of MS2 coat protein | 488 |
| GAAAACGCAGAGGAUAUUUCAGAUCAAAGCUGCAAAGAAGGCUGCACAUGAGGAUCACCCAUGUGGUCUUUAAA [Mod of Quesina - Jieux - Exclusion 6] (Eterna round: R97, puzzle: Exclusion 6) | MS2 coat protein | apparent KD of MS2 coat protein | 286 |

Kindly review the next sequence as well.
Would you mind telling me what apparent KD of MS2 coat protein value was observed for UAUUAGCAAGUAAGAUCCCACAUGAGGAUCACCCAUGUGCUCGUCUUAUAAGGUACUGUGACGAAAGUCACGGUACC [Sensor 3, v1 - 95 v1] (Eterna round: R97, puzzle: Sensor, turn-off variant 1) ? 18.3
